target: T1, Soluble CD28-Ig (extracellular domain of human CD28 fused to the Fc portion of human IgG1) (human, UniProt P10747 19-152, biotin-conjugated (NHS-biotin) in the FACS binding assays); experiment: competitive FACS on transfected cells, biotin-sCD28-Ig with FITC-sCTLA-4-Ig; grade 0-2 of CD28/CTLA-4 ratio vs WT hB7-1
T1 construct: extracellular domain; bought from R&D Systems; also called sCD28-Ig; CD28-Ig Fc; not shown: Fc portion of human IgG1
Quick list: Binding Score per entry.

Binder | Binding Score
Round 2 CD28B4-5* (ligand) SGITPKSVTKRVKETVMLSCDYNTSTEELTSLRIYWQKDSKMVLAILPGKVQVWPEYKNRTITDMNDNPRIVILALRLSDKGTYTCVVQKPDLKGAYKLEHLASVRLMIRADFPVPSITDIGHPAPNVKRIRCSASGGFPEPRLAWMEDGEELNAVNTTVDQDLDTELYSVSSELDFNVTNNHSIVCLIKYGELSVSQIFPWSKPKQEPPIDQLPFWVIIPVSGALVLTAVVLYCLACRHVARWKRTRRNEETVGTERLSPIYLGSAQSSG | 0
Round 2 CD28D2-9 (ligand) ITPKSVTKRVKETVMLSCDYNTSTEELTSLRIYWQKDSKMVLAILPGKVQVWPEYKNRTITDMNDNPRIVILALRLSDSGTYTCVIQKPVLKGAYKLEHLTSVRLMIRADFPVPTINDLGNPSPNIRRLICSTSGGFPRPHLYWLENGEELNATNTTLSQDPETELYMISSELDFNVTNNHSIVCLIKYGELSVSQIFPWSKPKQEPPIDQLPFWVIIPVSGALVLTAVVLYCLACRHVARWKRTRRNEETVGTERLSPIYLGSAQSSG | 1
Round 2 CD28BP-8 (ligand) ITPKSVTKRVKETVMLSCDYNTSTEELTSLRIYWQKDSKMVLAILPGKVQVWPEYKNRTITDMNDNPRIVILALRLSDSGTYTCVIQKPVLKGAYKLEHLASVRLMIRADFPVPSITDIGHPAPNVKRIRCSASGGFPEPRLAWMEDGEELNAVNTTVDQDLDTELYSVSSELDSNVTNNHSIVCLIKYGELSVSQIFPWSKPKQEPPIDQLPFWVIIPVSGALVLTAVVLYCLACRHVARWKRTRRNEETVGTERLSPIYLGSAQSSG | 2
Round 2 CD28F11-8 (ligand) ITPKSVTKRVKETVMLSCDYNTSTEELTSLRIYWQKDSKMVLAILPGKVQVWPEYKNRTITDMNDNPRIVILALRLSDSGTYTCVIQKPVLKGAYKLEHLTSVRLMIRADFPVPTINDLGNPSPNIRRLICSTSGGFPRPHLYWLENGEELNATNTTLSQDPETKLYMISSELDFNMTSNLCLVKYGDLTVSQTFYWQESKPTPSANQHLTWTIIIPVSAFGISVIIAVILTCLTCRNAAIRRQRRENEVEMQSCSQSP | 0
Round 2 CD28E10-6 (ligand) ITPKSVTKRVKETVMLSCDYNTSTEELTSLRIYWQKDSKMVLAILPGKVQVWPEYKNRTITDMNDNPRIVILALRLSDSGTYTCVIQKPVLKGAYKLEHLASVRLMIRADFPVPTINDLGNPSPNIRRLICSTSGGFPRPHLYWLENGEELNATNTTLSQDPETELYMISSELDFNVTNNHSIVCLIKYGELSVSQIFPWSKPKQEPPIDQLPFWVIIPVSGALVLTAVVLYCLACRHVARWKRTRRNEETVGTERLSPIYLGSAQSSG | 1
Round 2 CD28D2-3 (ligand) ITPKSVTKRVKETVMLSCDYNTSTEELTSLRIYWQKDSKMVLAILPGKVQVWPEYKNRTITDMNDNPRIVIQALRLSDSGTYTCVIQKPVLKGAYKLEHLASVRLMIRADFPVPTDLGNPSPNIRRLICSTSGGFPRPHLYWLENGEELNATNTTVSQDPGTELYMISSELDFNVTNNHSIVCLIKYGELSVSQIFPWSKPKQEPPIDQLPFWVIIPVSGALVLTAVVLYCLACRHVARWKRTRRNEETVGTERLSPIYLGSAQSSG | 1
Round 2 CD28F12-5* (ligand) ITPKSVTKRVKETVMLSCDYNTSTEELTSLRIYWQKDSKMVLAILPGKVQVWPEYKNRTITDMNDNPRIVILALRLSDSGTYTCVIQKPDLKGAYKLEHLASVRLMIRADFPVPSITDIGHPAPNVKRIRCSASGDFPEPRLAWMEDGEELNAVNTTVDQDLDTELYSVSSELDFNVTNNHSIVCLIKYGELSVSQIFPWSKPKQEPPIDQLPFWVIIPVSGALVLTAVVLYCLACRHVARWKRTRRNEETVGTERLSPIYLGSAQSSG | 1
Round 2 CD28BP-11 (ligand) SGITPKSVTKRVKETVMLSCDYNASTEELTSLRIYWQKDSKMVLAILPGKVQVWPEYKNRTITDMNDNPRIVILALRLSDKGTYTCVVQKNENGSFRREHLTSVTLSIRADFPVPSITDIGHPAPNVKRIRCSASGGFPEPRLAWMEDGEELNAVNTTVDQDLDTELYSVSSELDFNVTNNHSIVCLIKYGELSVSQIFPWSKPKQEPPIDQLPFWVIIPVSGALVLTAVVLYCLACRHVARWKRTRRNEETVGTERLSPIYLGSAQSSG | 2
Round 2 CD28A6-1 (ligand) ITPKSVTKRVKETVMLSCDYNTSTEELTSLRIYWQKDSKMVLAILPGKVQVWPEYKNRTITDMNDNPRIVILALRLSDSGTYTCVIQKPVLKGAYKLEHLASVRLMIRADFPVPTINDLGNPSPNIRRLICSTSGGFPRPHLYWLENGEELNATNTTVSQDPETKLYMISSELDFNVTNNHSIVCLIKYGELSVSQIFPWSKPKQEPPIDQLPFRVIIPVSGALVLTAIVLYCLACRHVARWKRTRRNEETVGTERLSPIYLGSAQSSG | 1
